Test system: K562
TEST: Growth inhibition of human K562 cells after 48 hrs by SRB protein assay
Format: functional
CONDITION_INFO: K562, 48 h, read-out: Log TGI (converted)
OBSERVABLE: TGI
Your reply should be a number followed by the unit it is expressed in.

Ask: Provide only the value of recorded TGI for "O=C(Cc1csc2nc(-c3ccc(Br)cc3)cn12)N/N=C/c1ccc(O)cc1"
Result: 7.08 µM

Ask: Input "O=C(Cc1csc2nc(-c3ccc(Br)cc3)cn12)N/N=C/c1ccccc1O" , output reported TGI.
Result: 2.95 µM

Ask: Give recorded TGI. "O=C(Cc1csc2nc(-c3ccc(Br)cc3)cn12)N/N=C/c1ccccc1"
Result: 7.94 µM

Ask: Annotate the compound "COc1cccc(OC)c1/C=N/NC(=O)Cc1csc2nc(-c3ccc(Br)cc3)cn12" with its measured TGI.
Result: 6.92 µM

Ask: Provide TGI value for the following compound: Nc1nc2[nH]cnc2c(=S)[nH]1 [THIOGUANINE]
Result: 70.8 µM

====

Provide the recorded log10 GI50 for the entries that follow.
Tested on: HCT-15
TEST: Growth inhibition of human HCT15 cells after 48 hrs by SRB protein assay
Type: functional
CONDITION_INFO: HCT-15, 48 h
Values below are the log10 of the recorded GI50, with µM as the unit.

Ask: Output log10 GI50 of "O=C(Cc1csc2nc(-c3ccc(Br)cc3)cn12)N/N=C/c1ccc(Cl)cc1Cl"
Result: 1.41

Ask: // fetch log10 GI50 given entry "COc1cccc(OC)c1/C=N/NC(=O)Cc1csc2nc(-c3ccc(Br)cc3)cn12"
Result: 0.87

Ask: Supply measured log10 GI50 of "O=C(Cc1csc2nc(-c3ccc(Br)cc3)cn12)N/N=C/c1ccc(O)cc1" in your reply.
Result: 1.25

Ask: Please look at this compound and report its log10 GI50: "Nc1nc2[nH]cnc2c(=S)[nH]1"
Result: 0.04

Ask: // fetch log10 GI50 given entry "O=C(Cc1csc2nc(-c3ccc(Br)cc3)cn12)N/N=C/c1ccccc1O"
Result: -0.02

Ask: Determine from records and report log10 GI50 for "O=C(Cc1csc2nc(-c3ccc(Br)cc3)cn12)N/N=C/c1ccccc1"
Result: 1.21

====

Tested on: CCRF-CEM
TEST: Growth inhibition of human CCRF-CEM cells after 48 hrs by SRB protein assay
Assay type: functional
OBSERVABLE: GI50 (µM)
Express it in µM; write the number only.

Ask: State its GI50 for this compound: "O=C(Cc1csc2nc(-c3ccc(Br)cc3)cn12)N/N=C/c1ccccc1"
Result: 17.4

Ask: Query GI50 for "O=C(Cc1csc2nc(-c3ccc(Br)cc3)cn12)N/N=C/c1ccc(Cl)cc1Cl"
Result: 39.8

Ask: Note GI50 for the compound shown: "COc1cccc(OC)c1/C=N/NC(=O)Cc1csc2nc(-c3ccc(Br)cc3)cn12"
Result: 9.55

Ask: Specify GI50 for Nc1nc2[nH]cnc2c(=S)[nH]1 [THIOGUANINE] and stop.
Result: 0.155

Ask: Retrieve GI50 measured for "O=C(Cc1csc2nc(-c3ccc(Br)cc3)cn12)N/N=C/c1ccc(O)cc1" and print it.
Result: 12.3

Ask: State, in one line, measured GI50 of "O=C(Cc1csc2nc(-c3ccc(Br)cc3)cn12)N/N=C/c1ccccc1O"
Result: 1.82

====

Please provide measured growth at 100 µM for the entries that follow.
System: MCF7
TEST: Cytotoxicity against human MCF7 cells assessed as growth at 100 uM after 48 hrs by SRB protein assay relative to control
Assay type: functional
CONDITION_INFO: MCF7, 48 h, read-out: Activity
Only the number, expressed in %, is required.

Ask: Note growth at 100 µM for the compound shown: "O=C(Cc1csc2nc(-c3ccc(Br)cc3)cn12)N/N=C/c1ccc(F)cc1"
Result: 71

Ask: State its growth at 100 µM: "O=C(Cc1csc2nc(-c3ccc(Br)cc3)cn12)N/N=C/c1ccc(Br)cc1"
Result: 56

Ask: Please indicate growth at 100 µM recorded for "O=C(Cc1csc2nc(-c3ccc(Br)cc3)cn12)N/N=C/c1ccc(O)cc1"
Result: 22

Ask: Output growth at 100 µM of "O=C(Cc1csc2nc(-c3ccc(Br)cc3)cn12)N/N=C/c1ccccc1"
Result: 57

Ask: Could you please provide reported growth at 100 µM for "COc1ccc(/C=N/NC(=O)Cc2csc3nc(-c4ccc(Br)cc4)cn23)cc1" ? Thanks!
Result: 46

====

System: RXF 393
TEST: Growth inhibition of human RXF393 cells after 48 hrs by SRB protein assay
Format: functional
CONDITION_INFO: RXF 393, 48 h
OBSERVABLE: GI50 (µM)
Expressed in µM, but write only the number.

Ask: // fetch GI50 for Nc1nc2[nH]cnc2c(=S)[nH]1 [THIOGUANINE] ; system: RXF 393
Result: 0.759

Ask: Lab note: RXF 393 assay, enter GI50 for "O=C(Cc1csc2nc(-c3ccc(Br)cc3)cn12)N/N=C/c1ccccc1O" here
Result: 38

Ask: Under RXF 393, report GI50 for "O=C(Cc1csc2nc(-c3ccc(Br)cc3)cn12)N/N=C/c1ccc(Cl)cc1Cl"
Result: 28.2

Ask: # return GI50 of "O=C(Cc1csc2nc(-c3ccc(Br)cc3)cn12)N/N=C/c1ccccc1" (system: RXF 393)
Result: 14.5

Ask: Please respond with reported GI50 (system RXF 393) for "COc1cccc(OC)c1/C=N/NC(=O)Cc1csc2nc(-c3ccc(Br)cc3)cn12" .
Result: 19.1

====

Tested on: MCF7
TEST: Growth inhibition of human MCF7 cells after 48 hrs by SRB protein assay
Assay type: functional
CONDITION_INFO: MCF7, 48 h
OBSERVABLE: log10 GI50 (log10 of the value in µM)
# log10 transformed; quantity=GI50; unit=µM

Ask: Note log10 GI50 for the molecule shown: Nc1nc2[nH]cnc2c(=S)[nH]1 [THIOGUANINE]
Result: -0.15

Ask: Note down log10 GI50 recorded for "O=C(Cc1csc2nc(-c3ccc(Br)cc3)cn12)N/N=C/c1ccccc1"
Result: 1.88

Ask: Answer with the recorded log10 GI50 for the molecule listed here: "COc1cccc(OC)c1/C=N/NC(=O)Cc1csc2nc(-c3ccc(Br)cc3)cn12"
Result: 1.47

Ask: Indicate the recorded log10 GI50 value for this molecule: "O=C(Cc1csc2nc(-c3ccc(Br)cc3)cn12)N/N=C/c1ccc(O)cc1"
Result: 1.80

Ask: Supply recorded log10 GI50 for "O=C(Cc1csc2nc(-c3ccc(Br)cc3)cn12)N/N=C/c1ccccc1O" here.
Result: 1.12

====

Test system: SK-MEL-28
TEST: Growth inhibition of human SK-MEL-28 cells after 48 hrs by SRB protein assay
Format: functional
CONDITION_INFO: SK-MEL-28, 48 h
OBSERVABLE: GI50 (µM)
Note: unit µM is implicit; provide only the numeric part.

Ask: Specify reported GI50 for the compound shown: Nc1nc2[nH]cnc2c(=S)[nH]1 [THIOGUANINE]
Result: 8.91

Ask: State its GI50: "O=C(Cc1csc2nc(-c3ccc(Br)cc3)cn12)N/N=C/c1ccccc1O"
Result: 12

Ask: Return value of GI50 for input "O=C(Cc1csc2nc(-c3ccc(Br)cc3)cn12)N/N=C/c1ccc(O)cc1" , no commentary.
Result: 60.3

Ask: Output measured GI50 for this item: "COc1cccc(OC)c1/C=N/NC(=O)Cc1csc2nc(-c3ccc(Br)cc3)cn12"
Result: 41.7

====

Kindly state growth at 100 µM for each of the entries shown.
Tested on: MCF7
TEST: Cytotoxicity against human MCF7 cells assessed as growth at 100 uM after 48 hrs by SRB protein assay relative to control
Format: functional
CONDITION_INFO: MCF7, 48 h, read-out: Activity
# value in %; strip the unit string

Ask: Return value of growth at 100 µM for input "CN(C)c1ccc(/C=N/NC(=O)Cc2csc3nc(-c4ccc(Br)cc4)cn23)cc1" , no commentary.
Result: 82

Ask: Provide growth at 100 µM value for the following compound: "O=C(Cc1csc2nc(-c3ccc(Br)cc3)cn12)N/N=C/c1ccccc1O"
Result: 7

Ask: Return the recorded growth at 100 µM value; entry: "COc1cccc(OC)c1/C=N/NC(=O)Cc1csc2nc(-c3ccc(Br)cc3)cn12"
Result: 27

Ask: Return growth at 100 µM (reported value) for this compound: "O=C(Cc1csc2nc(-c3ccc(Br)cc3)cn12)N/N=C/c1ccc(Cl)cc1Cl"
Result: 46

====

Provide the recorded GI50 for the entries that follow.
Test system: UACC-62
TEST: Growth inhibition of human UACC62 cells after 48 hrs by SRB protein assay
Assay type: functional
CONDITION_INFO: UACC-62, 48 h
Answer with a number only, understood to be in µM.

Ask: For "Nc1nc2[nH]cnc2c(=S)[nH]1" , write its GI50.
Result: 0.501

Ask: # return recorded GI50 for entry "O=C(Cc1csc2nc(-c3ccc(Br)cc3)cn12)N/N=C/c1ccccc1"
Result: 11.5

Ask: Item "COc1cccc(OC)c1/C=N/NC(=O)Cc1csc2nc(-c3ccc(Br)cc3)cn12" : provide GI50
Result: 12

Ask: Provide only the value of recorded GI50 for "O=C(Cc1csc2nc(-c3ccc(Br)cc3)cn12)N/N=C/c1ccc(Cl)cc1Cl"
Result: 23.4

Ask: Annotate the molecule "O=C(Cc1csc2nc(-c3ccc(Br)cc3)cn12)N/N=C/c1ccccc1O" with its measured GI50.
Result: 2.09

Ask: Look up and state reported GI50 for "O=C(Cc1csc2nc(-c3ccc(Br)cc3)cn12)N/N=C/c1ccc(O)cc1"
Result: 9.12
